B1: glmS ribozyme (parent)
chain: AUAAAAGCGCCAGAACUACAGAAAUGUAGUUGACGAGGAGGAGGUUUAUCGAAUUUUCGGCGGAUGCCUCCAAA

- Variants of: B1
- experiment.notes: self-cleavage kobs at 640 uM GlcN6P; higher = faster cleavage; RNA array
- condition.label: with glucosamine-6-phosphate
Variants at the floor of the assay were thinned out.
assay.readout: self-cleavage kobs at 640 uM GlcN6P

# count of solved cases: 5
AUAAAAGCGCCAGAACUACAGAAAUGUAGUUGACGAAGAGGCGGUUGAUCGAAUUUUCGGCGGAUGCCUCCAAA [G37A A42C U47G]    < 1e-05 s⁻¹
AUAAAAGCGCCAGAACUACAGAAAUGUAGUUGACGAGGAGGAGGUUUAUCGAAUUUUCGGCGGAAGCCUGCAAA [U65A C70G]    7.89e-05 s⁻¹
AUAAAAGCGCCAGAACUACAGAAAUGUAGUUGACUAGGAUGAGGUUUAUCGAAUUUUCGGCGGAUGCCUCCAAA [G35U G40U]    < 1e-05 s⁻¹
AUAAAAGCGCCAGAACUACAGAAAUGUAGUUGACGAGGAUGAGGUUUAUCGAAUUUUCAGCGGAUGCCUCCAAA [G40U G59A]    < 1e-05 s⁻¹
AUAAAAGCGGUAGAAAUACAGAAAUGUAGUUGUUGAGGAGGAGGUUUAUGGAAUUUUCGGCGGAUGCCUUCAAA [C10G C11U C16A A33U C34U C50G C70U]    4.89e-05 s⁻¹

Provide self-cleavage kobs at 640 uM GlcN6P for all items below, preserving their order.
1. AUAAAAGCGCCAGAACUACAGAAAUGUAGUUGACGCGGAGGAGGUUUAUCGAAGUUUCGGCGAAUGCCUCCAAA [A36C U54G G63A]
2. AUAAAAGCGCCAGAACUACAGAAAUGUAGUUGACGAGGAGGAGGUUUAUCGAAUUUUUGUCGGAUGCCUCCAAA [C58U G60U]
3. AUAAAAGCGCCCGAACUACAGAAAUGUAGUUGACAAGGAGGAGGUUUAUCGAAUUUUCGGCGGAUGCCUUCAAA [A12C G35A C70U]
4. AUAAAAGCGCCAGAACUACAGAAAUGUAAUUGACGAGGAGGAGGUUUAUCGAAUUUUCUGCGGAUGCCUCCAAA [G29A G59U]
5. AUAAAAGCGCCAGAACUACAGAAAUGUAGUUGACGAGGAGGAGGUUUAUCGCAUUCUCGGCGGAUGUCUCCAAA [A52C U56C C67U]
6. AUAAAAGCGCCCGAACUACAGAAAUGUAGUUGACGAGGAGGAGGUUUAUCGAAUUUUCGGCGGAUGCCCCCAAA [A12C U69C]
7. AUAAAAGGGCUAGAUCUACAGAAAUGUACUUGACGAGGAGUAGGUUUAUCGAAUUUUCGGCGGAUGCCUCCAAA [C8G C11U A15U G29C G41U]

Completion:
1. < 1e-05 s⁻¹
2. < 1e-05 s⁻¹
3. < 1e-05 s⁻¹
4. < 1e-05 s⁻¹
5. < 1e-05 s⁻¹
6. 0.000885 s⁻¹
7. < 1e-05 s⁻¹

Give one value of self-cleavage kobs at 640 uM GlcN6P per listed variant.
1. AUAAAAGCGCCAGAACUACAGAAAUGUAGUUUACGAGGAGGAGGGUUAUCGAAUUUUCGGCGGAUGCCUACAAA [G32U U45G C70A]
2. AUAAAAGCGACAGAACUACAGAAAUGUAGUUGGCGAGGAGGAGGCUUAUCGAAUUUUCGGCGGAUACCUUCAAA [C10A A33G U45C G66A C70U]
3. AUAAAAGCGCCAGAACUACAGAAAUGUAGUUGUUGAGGAGGAGGUUUAUCGAAUUUUCGGCGGAUGCCUGCAAA [A33U C34U C70G]

Completion:
["< 1e-05 s⁻¹", "< 1e-05 s⁻¹", "0.00168 s⁻¹"]
